// values below are reported EC50
target_or_test_system: Human GPA33 on GPA33+ colorectal cancer cell lines (Colo 205, LS 174T, SW 1222) (human) (UniProt Q99795)
Sequence (Q99795 22-319 limits assumed): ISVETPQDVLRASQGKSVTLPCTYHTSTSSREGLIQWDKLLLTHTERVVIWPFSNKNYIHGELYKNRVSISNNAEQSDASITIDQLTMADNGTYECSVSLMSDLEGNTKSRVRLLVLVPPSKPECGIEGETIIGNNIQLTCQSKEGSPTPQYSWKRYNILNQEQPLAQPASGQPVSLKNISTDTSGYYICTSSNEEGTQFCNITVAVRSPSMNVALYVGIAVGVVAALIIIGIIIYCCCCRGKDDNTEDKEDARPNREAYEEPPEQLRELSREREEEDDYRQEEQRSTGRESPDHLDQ
assay_remarks: cell binding to LS174T Luc cells; IgG format
Remember to follow the number with its unit.

These recorded examples may help you get a feel for the data.
{"binder": "G3A_VK1+VH3 (antibody, IgG1, V domains shown, part only, IgG1 constant regions) VH: EVQLVESGGGLVKPGGSLRLSCAASGFAFSTYDMSWVRQAPGKGLEWVATISSGGSYTYYADSVKGRFTISRDSAKNSLYLQMNSLRAEDTAVYYCAPTTVVPFAYWGQGTLVTVSA VL: DIQMTQSPSSLSASVGDRVTITCKASQNVRTVVAWYQQKPGKAPKRLIYLASNRHTGVPSRFSGSGSGTEFTLTISNLQPEDFATYYCLQHWSYPLTFGSGTKLEVK", "EC50": "1.78 µg/mL"}
{"binder": "G3A_VK3+VH2 (antibody, IgG1, V domains shown, part only, IgG1 constant regions not given) VH: EVQLVESGGGLVKPGGSLRLSCAASGFAFSTYDMSWVRQAPGKGLEWVATISSGGSYTYYLDSVKGRFTISRDSAKNSLYLQMNSLRAEDTAVYYCAPTTVVPFAYWGQGTLVTVSA VL: DIQMTQSPSSLSTSVGDRVTITCKASQNVRTVVAWYQQKPGKAPKTLIYLASNRHSGVPSRFSGSGSGTEFTLTISNLQPEDFATYYCLQHWSYPLTFGSGTKLEVK", "EC50": "0.381 µg/mL"}
{"binder": "G3A_VK1+VH1 (antibody, IgG1, V domains shown, part only, IgG1 constant regions not given) VH: EVQLVESGGGLVKPGGSLRLSCAASGFAFSTYDMSWVRQAPGKGLEWVSTISSGGSYTYYADSVKGRFTISRDNAKNSLYLQMNSLRAEDTAVYYCAPTTVVPFAYWGQGTLVTVSA VL: DIQMTQSPSSLSASVGDRVTITCKASQNVRTVVAWYQQKPGKAPKRLIYLASNRHTGVPSRFSGSGSGTEFTLTISNLQPEDFATYYCLQHWSYPLTFGSGTKLEVK", "EC50": "1.12 µg/mL"}

Query binder follows.
Input G3A_VK1+VH2 (antibody, IgG1, V domains shown, part only, IgG1 constant regions) VH: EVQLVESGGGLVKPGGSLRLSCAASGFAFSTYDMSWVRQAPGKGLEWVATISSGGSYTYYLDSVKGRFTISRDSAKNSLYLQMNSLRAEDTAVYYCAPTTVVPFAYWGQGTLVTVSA VL: DIQMTQSPSSLSASVGDRVTITCKASQNVRTVVAWYQQKPGKAPKRLIYLASNRHTGVPSRFSGSGSGTEFTLTISNLQPEDFATYYCLQHWSYPLTFGSGTKLEVK . Output EC50: 0.654 µg/mL
